B1: 6YSE (parent)
chain: HERALMVNRLQKLTRMLRVHPDPKWKQEQQELIKRLK

- Variants of: B1
- assay notes: folding stability dG (cDNA display proteolysis); higher = more stable
- setup conditions: PBS, room temperature
Everything with folding stability dG lower than 1 kcal/mol is rule not met; everything else, including exactly 1 kcal/mol, is rule met.

# check: folding stability dG of L5R is greater than or equal to 1 kcal/mol
rule met

Attribution: the MegaScale stability set (Tsuboyama et al. 2023)
